# Lookup of reported pIC50 keyed by entry
molecular target: recombinant integrase (HIV-1 integrase) (Human immunodeficiency virus type 1 group M subtype B); construct: Assays for the strand transfer activity of integrase were conducted in accordance with WO 02/30930 for recombinant integrase; test: HIV-1 integrase assay: strand transfer catalyzed by recombinant integrase; assay type: biochemical; conditions: strand transfer activity, read-out: IC50
pIC50: −log10 of the molar value.

| chem_smiles | pIC50 |
| --- | --- |
| CO[C@]1(C)CC[C@@H](N(C)C(=O)C(=O)N(C)C)c2nc(C(=O)NCc3ccc(F)c(C)c3)c(O)c(=O)n2C1 | 7.43 |
| Cc1cc(CNC(=O)c2nc3n(c(=O)c2O)[C@@H](C)COC[C@H]3N(C)C(=O)C(=O)N(C)C)ccc1F | 7.42 |
| Cc1cc(CNC(=O)c2nc3n(c(=O)c2O)[C@H](C)COC[C@@H]3N(C)C(=O)C(=O)N(C)C)ccc1F | 7.32 |
| CC[C@@H]1COC[C@H](N(C)C(=O)C(=O)N(C)C)c2nc(C(=O)NCc3ccc(F)cc3)c(O)c(=O)n21 | 7.39 |

---

Below, each of the molecules is paired with its reported Number of fold shift in IC50 versus wild type IIIB, G140S/Q148H value.
system: virus containing G140S/Q148H mutation in the integrase gene; conditions: k = IC50(mutant)/IC50(wild type)
parameter: Number of fold shift in IC50 versus wild type IIIB, G140S/Q148H

| molecule | inequality_symbol | value_measured |
| --- | --- | --- |
| CN(C)C(=O)C(=O)N(C)C1COCCn2c1nc(C(=O)NCc1ccc(F)cc1)c(O)c2=O (single isomer, unassigned; (-)) [Compound W, reference compound] | > | 73 |
| Cc1cc(CNC(=O)c2nc3n(c(=O)c2O)[C@@H](C)COC[C@H]3N(C)C(=O)C(=O)N(C)C)ccc1F | = | 12 |
| Cc1cc(CNC(=O)c2nc3n(c(=O)c2O)[C@@H](C)COC[C@@H]3N(C)C(=O)C(=O)N(C)C)ccc1F | = | 20 |
| Cc1cc(CNC(=O)c2nc3n(c(=O)c2O)CC(C)(C)CC[C@H]3N(C)C(=O)C(=O)N(C)C)ccc1F | = | 9 |

---

System: virus containing N155H mutation in the integrase gene
Conditions: k = IC50(mutant)/IC50(wild type)
Description: An assay for measuring the inhibition of acute HIV infection with HeLa P4-2 cells in a single cycle infectivity assay was conducted using methods described in Joyce et al., J. Biol. Chem. 2002, 277: 45811, Hazuda et al., Science 2000, 287: 646, and Kimpton et al, J. Virol. 1992, 66: 2232. […]
Listed below: Number of fold shift in IC50 versus wild type IIIB, N155H values for each entry.
parameter: Number of fold shift in IC50 versus wild type IIIB, N155H

| compound | value_measured |
| --- | --- |
| CN(C)C(=O)C(=O)N(C)C1COCCn2c1nc(C(=O)NCc1ccc(F)cc1)c(O)c2=O (single isomer, unassigned; (-)) [Compound W, reference compound] | 29 |
| Cc1ccc(CNC(=O)c2nc3n(c(=O)c2O)[C@H](C)CCC[C@H]3N(C)C(=O)C(=O)N(C)C)cc1F (racemic) [Compound 3A] | 1 |
| CO[C@@]1(C)CC[C@H](N(C)C(=O)C(=O)N(C)C)c2nc(C(=O)NCc3ccc(F)c(C)c3)c(O)c(=O)n2C1 [Compound 2B] | 24 |
